These entries and their values trace back to patent US7556796B2.

assay: Maximum tolerated dose (previously determined); details: mouse, in vivo; already determined to be near MTD for this drug
PARAMETER: MTD

>  <CHEMICAL_SMILES>
CC(=O)O[C@@]12CO[C@@H]1C[C@H](O)[C@@]1(C)C(=O)[C@H](O)C3=C(C)[C@@H](OC(=O)[C@H](O)[C@@H](NC(=O)OC(C)(C)C)c4ccccc4)C[C@@](O)([C@@H](OC(=O)c4ccccc4)[C@H]21)C3(C)C

>  <PARAMETER>
MTD

>  <ASSAY_RESULT>
~30 mg/kg

$$$$
